Test system: RARa:RXR (NR concentration 270 nM, RXRa partner concentration 90 nM)
Test: PBM binding z-score (relative to random genomic background probes); higher = stronger binding; sequences stand for … in GC…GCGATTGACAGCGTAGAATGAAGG
Assign PBM binding z-score to each entry below.
Give bare numbers.

Consider the reported PBM binding z-score for these sequences:
Sequence input	Assay system	PBM binding z-score
TCGAGTGGGTTAGTCGGGGCATTCAGCCAACATA	RARa:RXR (NR concentration 270 nM, RXRa partner concentration 90 nM)	0.255
CCTATTAGTTGACCATAAGGGCACCCGAAGCTCG	RARa:RXR (NR concentration 270 nM, RXRa partner concentration 90 nM)	0.981
CGTCCAATGTCAAGGTCAGTGAAAGAGACTCGAA	RARa:RXR (NR concentration 270 nM, RXRa partner concentration 90 nM)	2.26

Field: PBM binding z-score. Fill in for each record below.
1. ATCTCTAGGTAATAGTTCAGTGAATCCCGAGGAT
2. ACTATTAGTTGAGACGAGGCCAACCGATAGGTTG
3. GATACAGGGTCAGCTAGAGGCCAGAGTTTGGAAA

Data returned:
0.192
0.671
4.26

List PBM binding z-score for every entry below, keeping the order given.
1. GCTAGTTGGTCAGTAAAAGGTCACGCACCGGTCG
2. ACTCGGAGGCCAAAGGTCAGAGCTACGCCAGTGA
3. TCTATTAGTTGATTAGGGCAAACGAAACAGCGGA
4. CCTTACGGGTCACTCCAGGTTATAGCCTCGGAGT
5. GCTGCTAGGTCAGGGTGGTCAGCTAACGGGTACG

Data returned:
[6.73, 6.59, 0.325, 3.43, 1.03]

Data request: Please look up its PBM binding z-score: "TCATATAGGTAAAAGGTGGAAGTCGGTGTGGTAA"
Data returned: 1.18

###

Test system: LXRb:RXRa (NR concentration 270 nM, RXRa partner concentration 90 nM)
Assay: PBM binding z-score (relative to random genomic background probes); higher = stronger binding; sequences stand for … in GC…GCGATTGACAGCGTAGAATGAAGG
Assign PBM binding z-score to each entry below.

These solved cases illustrate the format of a correct answer.
Sequence input	PBM binding z-score
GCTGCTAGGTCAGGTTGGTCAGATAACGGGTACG	0.708
ATACCAAGGTGCTCGTGAGGTCGTTGATACTAAC	0.834
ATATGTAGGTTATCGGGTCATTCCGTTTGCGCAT	3.11

Answer for every listed entry: what is its PBM binding z-score? The entries follow.
1. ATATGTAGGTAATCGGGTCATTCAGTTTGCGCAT
2. AGAATGAGGCTATTAAGATCAGGGAATTGCGGTC
3. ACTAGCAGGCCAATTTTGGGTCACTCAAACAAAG
4. AGAATGAGGTTACGAAAGATCAGGGAAACGCTTG
5. TGAATAAGGTTAAAGATCAGGGAACGTGGCGTCG
6. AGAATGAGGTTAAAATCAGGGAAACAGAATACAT
7. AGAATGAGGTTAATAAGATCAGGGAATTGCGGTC

Data returned:
1. 2.26
2. -0.728
3. 0.747
4. 2.46
5. 1.71
6. 2.08
7. 1.24

Please state PBM binding z-score for every sequence in the list that follows.
1. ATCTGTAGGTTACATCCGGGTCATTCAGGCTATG
2. CCTCGGAGGACGGAAGGTCAGAGCTGTCCGCTTT

Data returned:
1. 2.81
2. 0.901

###

Tested on: FXR:RXRa (NR concentration 270 nM, RXRa partner concentration 90 nM)
Experiment: PBM binding z-score (relative to random genomic background probes); higher = stronger binding; sequences stand for … in GC…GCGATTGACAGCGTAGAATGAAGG
Entries are grouped by PBM binding z-score into these classes: Low (below 0.7), Mid (0.7 to below 4), High (4 or more)

The following sequences have reported results that may help.
Sequence input	Assay system	Group
AGTCAAAGTTCATCTAGTTAACGTAAGATATGCT	FXR:RXRa (NR concentration 270 nM, RXRa partner concentration 90 nM)	High
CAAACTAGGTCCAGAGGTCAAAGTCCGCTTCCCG	FXR:RXRa (NR concentration 270 nM, RXRa partner concentration 90 nM)	High
CAAACTAGGTCAAGGTCGAAGTCGGTTTGTGCCA	FXR:RXRa (NR concentration 270 nM, RXRa partner concentration 90 nM)	High
TCTATTAGTTCATTAGGGCAACCGAAACAGCGGA	FXR:RXRa (NR concentration 270 nM, RXRa partner concentration 90 nM)	Mid
TCTCGGAGGACACTAAGGTCAGAGCTTTCCAGAG	FXR:RXRa (NR concentration 270 nM, RXRa partner concentration 90 nM)	Mid
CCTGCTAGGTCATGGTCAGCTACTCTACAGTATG	FXR:RXRa (NR concentration 270 nM, RXRa partner concentration 90 nM)	Mid
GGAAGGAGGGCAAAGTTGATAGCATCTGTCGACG	FXR:RXRa (NR concentration 270 nM, RXRa partner concentration 90 nM)	Mid
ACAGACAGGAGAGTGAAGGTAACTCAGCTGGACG	FXR:RXRa (NR concentration 270 nM, RXRa partner concentration 90 nM)	Low

Data request: # classify by PBM binding z-score band: "GCTAGCAGGCCATTTGGTTCACTCAATGACGGGC"
Data returned: Low

Data request: Which bin should I file "CAAACTAGGTCACCGGATGGTCAAAGTCCGCATG" under?
Data returned: High

Data request: Band of "GCTCGGAGGACAATGTCAGAGCTTTGTCCGTAGA" ?
Data returned: Low

Data request: Bin? "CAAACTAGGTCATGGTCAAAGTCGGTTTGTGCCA"
Data returned: Mid

Data request: Band for the recorded PBM binding z-score of "TGTCAAAGTTCAAAGATAACGTAAGTATCCACAC" ?
Data returned: High

###

Give measured PBM binding z-score for each item. Keep answers brief.
Test system: FXR:RXRa (NR concentration 270 nM, RXRa partner concentration 90 nM)
Test: PBM binding z-score (relative to random genomic background probes); higher = stronger binding; sequences stand for … in GC…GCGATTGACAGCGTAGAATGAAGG
Numbers only.

Example entries and their recorded answers appear below.
Sequence input	PBM binding z-score
CTCGAAAGGTTGGTTGAGGTGAGTATACGGATAA	1.15
TATACCGGGTCAAAGGCCAGAGTACGAATGTCGA	5.68
GCTAGTTGGTCAGTAAGAGGTCACACACCGGTCG	2.76
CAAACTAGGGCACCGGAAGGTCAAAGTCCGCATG	3.3
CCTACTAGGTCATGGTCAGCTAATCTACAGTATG	3.8

Here's the next entry for you.
Data request: For the record "CGTCAAAGTTCAACTAGGGTAACGTAAAGCACGC" , what value of PBM binding z-score is listed for FXR:RXRa (NR concentration 270 nM, RXRa partner concentration 90 nM)?
Data returned: 7.53

###

I'd appreciate it if you could supply PBM binding z-score values for the items below.
Test system: LXRa homodimer (NR concentration 270 nM)
Assay: PBM binding z-score (relative to random genomic background probes); higher = stronger binding; sequences stand for … in GC…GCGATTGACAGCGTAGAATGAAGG
One number for each entry.

Look over these answered cases.
Sequence input	PBM binding z-score
GCTTGTAGATCAAGGTTAATAAAGACTAAGCTAA	-0.45
CGTCCAAGGTCATAGGAGGTCAGTTAAGACAGAT	5.66
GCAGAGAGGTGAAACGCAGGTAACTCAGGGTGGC	-0.671

Answer for every listed entry: what is its PBM binding z-score? The entries follow.
1. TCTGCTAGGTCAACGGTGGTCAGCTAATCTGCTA
2. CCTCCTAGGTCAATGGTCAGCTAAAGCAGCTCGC
3. TCGACTAGGTTAGGGGCATTCAGAATGGCGTCGA
4. GCAGACAGGTGAAACGCAGGTGACTCAGGGTGGC
5. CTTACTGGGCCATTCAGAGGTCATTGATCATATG
6. TCTAGCAGGCTAGAGGGTCACTCAAGAGGTACGG

Data returned:
[-0.0402, 0.212, -0.304, -0.506, 6.7, -0.529]

###

Tested on: RXRa homodimer (NR concentration 180 nM)
Assay: PBM binding z-score (relative to random genomic background probes); higher = stronger binding; sequences stand for … in GC…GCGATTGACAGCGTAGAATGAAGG
Response key: T means PBM binding z-score >= 2; F means PBM binding z-score < 2.

Sequence input	Group
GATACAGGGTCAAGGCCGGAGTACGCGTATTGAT	T

Data request: Hi, just wondering whether "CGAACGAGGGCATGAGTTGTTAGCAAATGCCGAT" shows PBM binding z-score of 2 or higher.
Data returned: F
